Values compiled from patent US20160213742A1.

Kindly supply the reported MEC values for the records listed here.
- System: A. fumigatus MX 5944
- test-description: MEC assay (Example 31)
- Format: cell-based
- measurement-conditions: RPMI pH 7.0, 35° C., 24-48 hr

Worked cases, answers included:
>>> value_measured("CC[C@H](C)C[C@H](C)CCCCCCCCC(=O)N[C@H]1C[C@@H](O)[C@@H](NCCN)NC(=O)[C@@H]2[C@@H](O)CCN2C(=O)[C@H]([C@H](O)CCNC(=O)[C@H](Cc2ccccc2)NC(=O)[C@H](CC(C)C)NC(=O)[C@H](CCSC)NC=O)NC(=O)[C@H]([C@H](O)[C@@H](O)c2ccc(O)cc2)NC(=O)[C@@H]2C[C@@H](O)CN2C(=O)[C@H]([C@@H](C)O)NC1=O [Compound 1]")
"0.12 to 0.5 µg/mL"
>>> value_measured("C[C@@H](c1ncncc1F)[C@](O)(Cn1cncn1)c1ccc(F)cc1F [voriconazole, reference compound]")
"0.12 to 0.25 µg/mL"
>>> value_measured("CC[C@H](C)C[C@H](C)CCCCCCCCC(=O)N[C@H]1C[C@@H](O)[C@@H](OCCNC(=O)[C@H](Cc2ccccc2)NC(=O)[C@H](CC(C)C)NC(=O)[C@H](CCSC)NC=O)NC(=O)[C@@H]2[C@@H](O)CCN2C(=O)[C@H]([C@H](O)CCN)NC(=O)[C@H]([C@H](O)[C@@H](O)c2ccc(O)cc2)NC(=O)[C@@H]2C[C@@H](O)CN2C(=O)[C@H]([C@@H](C)O)NC1=O [Compound 12]")
"0.12 to 0.25 µg/mL"
>>> value_measured("CC[C@H](C)C[C@H](C)CCCCCCCCC(=O)N[C@H]1C[C@@H](O)[C@@H](NCCN)NC(=O)[C@@H]2[C@@H](O)CCN2C(=O)[C@H]([C@H](O)CCNC(=O)[C@H](CCSC)NC(=O)[C@H](CC(C)C)NC(=O)[C@H](CCSC)NC=O)NC(=O)[C@H]([C@H](O)[C@@H](O)c2ccc(O)cc2)NC(=O)[C@@H]2C[C@@H](O)CN2C(=O)[C@H]([C@@H](C)O)NC1=O [Compound 28]")
"0.25 µg/mL"
>>> value_measured("CC[C@H](C)C[C@H](C)CCCCCCCCC(=O)N[C@H]1C[C@@H](O)[C@@H](NCCNC(=O)C(Cc2ccccc2)NC(=O)C(CC(C)C)NC(=O)C(CCSC)NC(=O)Nc2ccc(Cl)cc2)NC(=O)[C@@H]2[C@@H](O)CCN2C(=O)[C@H]([C@H](O)CCN)NC(=O)[C@H]([C@H](O)[C@@H](O)c2ccc(O)cc2)NC(=O)[C@@H]2C[C@@H](O)CN2C(=O)[C@H]([C@@H](C)O)NC1=O (single isomer, unassigned) [Compound 13b]")
"0.25 µg/mL"

Now consider a different compound.
**Q:** // query MEC value for entry CC[C@H](C)C[C@H](C)CCCCCCCCC(=O)N[C@H]1C[C@@H](O)[C@@H](OCCN)NC(=O)[C@@H]2[C@@H](O)CCN2C(=O)[C@H]([C@H](O)CCNC(=O)[C@H](Cc2ccccc2)NC(=O)[C@H](CC(C)C)NC(=O)[C@H](CCSC)NC=O)NC(=O)[C@H]([C@H](O)[C@@H](O)c2ccc(O)cc2)NC(=O)[C@@H]2C[C@@H](O)CN2C(=O)[C@H]([C@@H](C)O)NC1=O [Compound 11]
**A:** 0.12 µg/mL
